- TEST TARGET: 5-HT1A receptor (rat hippocampus) (Rattus norvegicus, UniProt P19327)
- Construct: hippocampus; from tissue; host or cells: rat hippocampus
- Sequence (P19327 whole entry): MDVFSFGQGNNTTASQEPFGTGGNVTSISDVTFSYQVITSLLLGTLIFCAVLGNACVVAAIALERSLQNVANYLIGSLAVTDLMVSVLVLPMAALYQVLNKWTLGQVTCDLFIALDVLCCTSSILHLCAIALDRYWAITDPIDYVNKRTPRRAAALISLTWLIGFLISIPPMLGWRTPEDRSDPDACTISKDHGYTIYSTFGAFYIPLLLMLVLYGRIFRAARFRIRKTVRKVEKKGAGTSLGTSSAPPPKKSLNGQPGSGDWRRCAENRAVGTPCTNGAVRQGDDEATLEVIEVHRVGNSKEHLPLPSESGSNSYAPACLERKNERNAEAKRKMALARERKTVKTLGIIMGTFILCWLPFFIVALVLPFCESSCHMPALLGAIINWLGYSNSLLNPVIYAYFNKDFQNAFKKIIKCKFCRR
- TEST: Radioligand binding assay, serotoninergic 5-HT1A receptors;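 further: test compound at 1 µM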
- SETUP CONDITIONS: binding assay result in %, Table 5a
Binned inhibition at 1 µM; ranges: interval 1: < 60%; interval 2: ≥ 60% and < 80%; interval 3: ≥ 80%

Each compound maps to one class by inhibition at 1 µM. Which class for CC(C)(C)c1ccc(S(=O)(=O)NC2CCN(CCCc3noc4cc(F)ccc34)CC2)cc1 [Compound 328] ?
interval 1

Note: place this compound into its band. Item: COc1ccc(S(=O)(=O)NC2CCN(CCCc3noc4cc(F)ccc34)C2)cc1 (stereo not shown) [Compound 213]
interval 2

Please report the category associated with O=S(=O)(N[C@H]1CCN(CCCc2noc3cc(F)ccc23)C1)c1csc2ccccc12 [Compound 225] , nothing else.
interval 2

Which band does CC(C)(C)c1ccc(S(=O)(=O)NCC2CN(CCOc3cccc4c3OCCO4)C2)cc1 [Compound 181] fall in?
interval 3

Could you place COc1cccc(S(=O)(=O)NC2CCN(CCCc3noc4cc(F)ccc34)C2)c1 (stereo not shown) [Compound 17] in its proper category? Many thanks.
interval 1

Place this compound in its band: O=S(=O)(NCC1CN(CCOc2cccc3c2OCCO3)C1)c1ccc2ccccc2c1 [Compound 177]
interval 3

Place this compound in its band: COc1ccc2cc(S(=O)(=O)N[C@@H]3CCN(CCCc4noc5cc(F)ccc45)C3)ccc2c1 [Compound 230]
interval 2

Kindly identify the class of Cn1ccc2c(S(=O)(=O)NC3CCN(CCCc4noc5cc(F)ccc45)C3)cccc21 (stereo not shown) [Compound 219] .
interval 3

Place this compound in its band: O=S(=O)(NCC1CN(CCOc2cccc3c2OCCO3)C1)c1ccc(-c2ccccc2)cc1 [Compound 178]
interval 3

Lab log: N#Cc1ccc(S(=O)(=O)NC2CCN(CCCc3noc4cc(F)ccc34)C2)cc1 (stereo not shown) [Compound 210] — assign inhibition at 1 µM category
interval 1

Entry Cc1c(S(=O)(=O)N[C@H]2CCN(CCCc3noc4cc(F)ccc34)C2)sc2ccc(Cl)cc12 [Compound 205] belongs to which category?
interval 2

Determine which band this compound sits in: O=S(=O)(N[C@@H]1CCN(CCCc2noc3cc(F)ccc23)C1)c1cc2ccccc2o1 [Compound 214]
interval 1

Band assignment needed for O=S(=O)(NCC1CCN(CCOc2cccc3c2OCCO3)C1)c1ccc(C(F)(F)F)cc1 (stereo not shown) [Compound 293] please.
interval 3

State the class of the compound shown: Cc1ccc(S(=O)(=O)NCC2CCN(CCOc3cccc4c3OCCO4)C2)cc1 (stereo not shown) [Compound 291]
interval 3

Returns: class label. Input: CC(C)(C)c1ccc(S(=O)(=O)NC2CCN(CCCc3noc4cc(F)ccc34)C2)cc1 (stereo not shown) [Compound 14]
interval 1

---

Provide the recorded inhibition at 1 µM for the entries that follow.
- TEST TARGET: H1 histaminergic receptors (Homo sapiens, UniProt P35367)
- Construct: expressed in transfected cells; host or cells: HEK-293 cells
- Sequence (P35367 whole entry): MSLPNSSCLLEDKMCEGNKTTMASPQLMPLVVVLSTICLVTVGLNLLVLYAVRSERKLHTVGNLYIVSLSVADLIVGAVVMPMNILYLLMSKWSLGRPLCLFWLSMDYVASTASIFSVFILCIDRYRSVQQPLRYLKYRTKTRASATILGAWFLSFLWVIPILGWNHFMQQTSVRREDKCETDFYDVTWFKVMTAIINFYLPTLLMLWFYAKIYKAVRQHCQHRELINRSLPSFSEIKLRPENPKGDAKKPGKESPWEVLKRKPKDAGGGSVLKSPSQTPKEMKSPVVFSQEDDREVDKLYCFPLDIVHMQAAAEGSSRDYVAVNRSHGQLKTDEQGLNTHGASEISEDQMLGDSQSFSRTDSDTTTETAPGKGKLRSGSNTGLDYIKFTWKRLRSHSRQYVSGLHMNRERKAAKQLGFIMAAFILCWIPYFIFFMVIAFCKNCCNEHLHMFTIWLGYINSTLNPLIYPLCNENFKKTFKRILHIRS
- TEST: Radioligand binding assay, histaminergic H1 receptors
- SETUP CONDITIONS: human recombinant (HEK-293 cells), [3H]pyrilamine 1 nM
Note: unit % is implicit; provide only the numeric part.

// inhibition at 1 µM lookup, key: Cc1cccc(S(=O)(=O)NC2CCN(CCCc3c[nH]c4ccc(Cl)cc34)C2)c1 (centres unmarked) [Compound 86]
70

Give the measured inhibition at 1 µM of Cc1cc(S(=O)(=O)N[C@H]2CCN(CCCc3noc4cc(F)ccc34)C2)c(C)s1 [Compound 223] .
52

Data request, read-out inhibition at 1 µM, for O=S(=O)(N[C@@H]1CCN(CCCc2noc3cc(F)ccc23)C1)c1cc2ccccc2o1 [Compound 214]
52

What measured inhibition at 1 µM goes with O=S(=O)(NC1CCN(CCCc2noc3cc(F)ccc23)C1)c1cc2ccccc2o1 (centres unmarked) [Compound 216] ?
61

What value of inhibition at 1 µM has been reported for the following compound? O=S(=O)(N[C@H]1CCN(CCCc2noc3cc(F)ccc23)C1)c1csc2ccccc12 [Compound 225]
57

Fill blank: measured inhibition at 1 µM of the compound O=S(=O)(NCC1CCN(CCCc2noc3cc(F)ccc23)C1)c1ccc2ccccc2c1 (centres unmarked) [Compound 240] is ____.
55

Look at this compound and give its reported inhibition at 1 µM. O=S(=O)(NCC1CCN(CCOc2cccc3c2OCCO3)C1)c1cccc(F)c1 (centres unmarked) [Compound 298]
40

Looking for the measured inhibition at 1 µM of O=S(=O)(NCC1CN(CCCc2noc3cc(F)ccc23)C1)c1cccc2ccccc12 [Compound 133] , can you help?
58

---

- TEST TARGET: dopaminergic receptors D2 (Homo sapiens, UniProt P14416)
- Sequence (P14416 whole entry): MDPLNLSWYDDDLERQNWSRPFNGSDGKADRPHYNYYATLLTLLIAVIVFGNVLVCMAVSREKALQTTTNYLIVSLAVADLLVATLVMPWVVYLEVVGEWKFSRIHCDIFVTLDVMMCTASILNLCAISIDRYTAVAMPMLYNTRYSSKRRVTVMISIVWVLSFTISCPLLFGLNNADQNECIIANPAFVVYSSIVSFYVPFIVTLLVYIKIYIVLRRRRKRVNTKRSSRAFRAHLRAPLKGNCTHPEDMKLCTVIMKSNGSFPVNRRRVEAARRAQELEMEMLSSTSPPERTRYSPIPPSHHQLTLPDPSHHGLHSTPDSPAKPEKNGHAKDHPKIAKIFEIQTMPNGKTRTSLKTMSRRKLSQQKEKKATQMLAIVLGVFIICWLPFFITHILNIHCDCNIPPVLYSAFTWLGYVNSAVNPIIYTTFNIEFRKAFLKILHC
- TEST: Radioligand binding assay, dopaminergic D2 receptors
- SETUP CONDITIONS: binding assay, test compound 1×10^−6 M
Field: inhibition at 1 µM. Provide a value for each of the molecules that follow.
# number only, unit % dropped from output

Quick one: inhibition at 1 µM for O=S(=O)(NCC1CCN(CCCc2noc3cc(F)ccc23)C1)c1cccc(Cl)c1 (centres unmarked) ?
14

What does the record list as inhibition at 1 µM for O=S(=O)(NCC1CN(CCOc2cccc3ccccc23)C1)c1ccc2ccccc2c1 ?
99

Need inhibition at 1 µM, item CC1(C)Cc2cccc(OCCN3CCC(NS(=O)(=O)c4ccc5ccccc5c4)C3)c2O1 (centres unmarked)
93

For the molecule shown here, CC(C)(C)c1ccc(S(=O)(=O)NC2CCN(CCCc3noc4cc(F)ccc34)C2)cc1 (centres unmarked) , give the reported inhibition at 1 µM.
100

Quick one: inhibition at 1 µM of COc1cccc(S(=O)(=O)NCC2CCN(CCCc3noc4cc(F)ccc34)C2)c1 (centres unmarked) ?
18

# query: inhibition at 1 µM of entry Cc1c(S(=O)(=O)N[C@@H]2CCN(CCCc3noc4cc(F)ccc34)C2)sc2ccc(F)cc12
101

GET /values?readout=inhibition at 1 µM&item= Cc1c(S(=O)(=O)NCC2CN(CCCc3noc4cc(F)ccc34)C2)sc2ccc(F)cc12
97

Item Cn1ccc2cc(S(=O)(=O)NC3CCN(CCCc4noc5cc(F)ccc45)C3)ccc21 (centres unmarked) has what recorded inhibition at 1 µM?
99

---

- TEST TARGET: 5-HT1A receptor (rat hippocampus) (Rattus norvegicus, UniProt P19327)
- Construct: hippocampus; from tissue; host or cells: rat hippocampus
- TEST: Radioligand binding assay, serotoninergic 5-HT1A receptors;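 further: test compound at 1 µM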
- SETUP CONDITIONS: binding assay result in %, Table 5a
REPORTED PROPERTY: inhibition at 1 µM (%)
Number only, in %; omit the unit.

Suppose we examine the compound Cn1ccc2c(S(=O)(=O)NCC3CN(CCOc4cccc5ccccc45)C3)cccc21 ; what inhibition at 1 µM value has been reported?
90

Any idea what inhibition at 1 µM was measured for O=S(=O)(NC1CCN(CCOc2cccc3[nH]ccc23)C1)c1cccc2ccccc12 (centres unmarked) ?
90

Consider the compound O=S(=O)(NCC1CCN(CCCc2noc3cc(F)ccc23)C1)c1ccc2c(c1)CCO2 (centres unmarked) and give its measured inhibition at 1 µM.
29

Report inhibition at 1 µM for O=S(=O)(NCC1CN(CCCc2c[nH]c3ccc(F)cc23)C1)c1ccc2ccccc2c1 please.
76

Bench note: what inhibition at 1 µM did O=S(=O)(N[C@@H]1CCN(CCCc2noc3cc(F)ccc23)C1)c1ccc2ccccc2c1 show?
68

Any idea what inhibition at 1 µM was measured for O=S(=O)(NC1CCN(CCCc2noc3cc(F)ccc23)C1)c1cccc2ccccc12 (centres unmarked) ?
67

What value of inhibition at 1 µM has been reported for the following compound? O=S(=O)(NC1CCN(CCCc2c[nH]c3ccc(Cl)cc23)C1)c1cccc(F)c1 (centres unmarked)
99

Item under review: CC1(C)Cc2cccc(OCCN3CCC(CNS(=O)(=O)c4ccc5ccccc5c4)C3)c2O1 (centres unmarked) . Reported inhibition at 1 µM?
98

What value of measured inhibition at 1 µM is listed for O=S(=O)(N[C@H]1CCN(CCCc2noc3cc(F)ccc23)C1)c1ccc2ccccc2c1 ?
58

Look up inhibition at 1 µM for this compound: O=S(=O)(NCC1CN(CCOc2nsc3ccccc23)C1)c1ccc2ccccc2c1
85

Tell me the measured inhibition at 1 µM of O=S(=O)(NCC1CCN(CCCc2noc3cc(F)ccc23)C1)c1cccc2ccccc12 (centres unmarked) , please.
56

May I ask what inhibition at 1 µM has been recorded for O=S(=O)(N[C@@H]1CCN(CCCc2noc3cc(F)ccc23)C1)c1ccc2cc(Cl)ccc2c1 ?
50

I am curious: what inhibition at 1 µM value has been reported for O=S(=O)(N[C@@H]1CCN(CCCc2noc3cc(F)ccc23)C1)c1cc2ccccc2s1 ?
54

# get_value(readout='inhibition at 1 µM', item= O=S(=O)(NC1CCN(CCOc2cccc3[nH]ccc23)C1)c1ccc2ccccc2c1 (centres unmarked) )
90

If you can, please state the reported inhibition at 1 µM value of Cc1cccc(S(=O)(=O)NC2CCN(CCOc3cccc4[nH]ccc34)C2)c1 (centres unmarked) .
90

# query: inhibition at 1 µM of entry O=S(=O)(NC1CCN(CCOc2cccc3[nH]ccc23)C1)c1ccccc1 (centres unmarked)
91

# query: inhibition at 1 µM of entry Cc1cccc(S(=O)(=O)NC2CCN(CCCc3c[nH]c4ccc(Cl)cc34)C2)c1 (centres unmarked)
101
